- TARGET OF ASSAY: SARS-COV-2 RBD extracellular domain expressed with a C-terminal mouse IgG2a (SARS-COV-2 RBD-mFc) (SARS-CoV-2)
- EXPERIMENT: SPR, captured mAb, RBD-mFc in solution, 37 C

{"BINDER": "mAb10982 (antibody, V domains shown) VH: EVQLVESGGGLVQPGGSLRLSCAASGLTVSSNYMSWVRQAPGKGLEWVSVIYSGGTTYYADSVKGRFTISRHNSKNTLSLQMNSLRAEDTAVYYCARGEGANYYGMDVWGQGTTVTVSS VL: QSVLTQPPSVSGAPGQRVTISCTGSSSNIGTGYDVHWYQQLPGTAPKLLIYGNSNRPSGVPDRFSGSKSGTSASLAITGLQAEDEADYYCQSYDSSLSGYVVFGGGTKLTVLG", "koff / s⁻¹": 0.000258}
{"BINDER": "mAb10971 (antibody, V domains shown) VH: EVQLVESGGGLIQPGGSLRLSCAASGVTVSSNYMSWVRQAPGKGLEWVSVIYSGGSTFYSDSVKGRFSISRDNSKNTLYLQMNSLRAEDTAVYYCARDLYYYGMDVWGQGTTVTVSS VL: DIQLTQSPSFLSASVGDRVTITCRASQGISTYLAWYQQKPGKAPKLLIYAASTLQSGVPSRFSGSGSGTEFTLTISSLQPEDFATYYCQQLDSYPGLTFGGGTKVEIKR", "koff / s⁻¹": "9.41e-05"}
{"BINDER": "mAb10921 (antibody, V domains shown) VH: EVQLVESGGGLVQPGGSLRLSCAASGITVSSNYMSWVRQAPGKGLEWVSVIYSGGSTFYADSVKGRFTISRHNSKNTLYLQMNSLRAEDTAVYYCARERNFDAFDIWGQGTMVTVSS VL: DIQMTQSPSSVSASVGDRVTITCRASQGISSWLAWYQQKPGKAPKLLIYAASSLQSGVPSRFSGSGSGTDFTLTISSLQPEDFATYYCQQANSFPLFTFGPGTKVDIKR", "koff / s⁻¹": 0.000125}
